Tested on: MDA-MB-435
Assay: NCI tumour cell line growth inhibition, 48 h
Activity calls are given as the source filed them. Rule as the data show it: active = GI50 up to about 1.1 µM and inactive = higher.

[
  {
    "molecule": "CC(=O)Nc1cccc(N2C(=O)/C(=C\\c3cccc(Oc4ccccc4)c3)SC2c2ccccc2)c1 (centres undefined)",
    "GI50": "33.9 µM (inactive)"
  },
  {
    "molecule": "Cc1ccc(S(=O)(=O)N/C(=N\\O)Nc2ccc(Cl)c(Cl)c2)cc1",
    "GI50": "3.48 µM (inactive)"
  },
  {
    "molecule": "OCCSCc1cc2c(O)c(c1)Cc1cc(CSCCO)cc(c1O)Cc1cc(CSCCO)cc(c1O)Cc1cc(CSCCO)cc(c1O)C2",
    "GI50": "2.83 µM (inactive)"
  },
  {
    "molecule": "CC(C)(N)C(=O)N[C@@H]1C(=O)N2[C@@H]1SC(C)(C)[C@@H]2C(=O)O",
    "GI50": "> 100 µM (inactive)"
  },
  {
    "molecule": "CC(=O)CCCCC(=O)Nc1ccc(CC(NC(=O)OC(C)(C)C)C(=O)NCC(=O)OCc2ccccc2)cc1 (centres undefined)",
    "GI50": "21.2 µM (inactive)"
  },
  {
    "molecule": "O=C(CCNC12CC3CC(CC(C3)C1)C2)c1ccccc1",
    "GI50": "26.5 µM (inactive)"
  },
  {
    "molecule": "COP(=N[Si](C)(C)C)(OC)OC",
    "GI50": "> 100 µM (inactive)"
  },
  {
    "molecule": "CCOC(=O)[C@@H]1ON2OC(OC3CCCC3(c3ccccc3)c3ccccc3)C(OC(C)=O)[C@H]3OC(=O)[C@@H]1C32 (some centres undefined)",
    "GI50": "51.1 µM (inactive)"
  },
  {
    "molecule": "O/N=C1/CCCCC1NO (centres undefined)",
    "GI50": "> 100 µM (inactive)"
  },
  {
    "molecule": "CN(C)CC1CCC/C(=C\\c2ccc(Cl)cc2)C1=O (centres undefined)",
    "GI50": "3.83 µM (inactive)"
  },
  {
    "molecule": "C(=C\\c1ccccc1)/C=N/c1nc2cc3sc(/N=C/C=C/c4ccccc4)nc3cc2s1",
    "GI50": "> 100 µM (inactive)"
  },
  {
    "molecule": "CCC(CON(C)c1ccccc1)(SC)SC",
    "GI50": "> 100 µM (inactive)"
  },
  {
    "molecule": "O=C1OC(c2ccccc2)N(C(=O)c2ccccc2)C1Cc1ccc(OCc2ccccc2)cc1 (centres undefined)",
    "GI50": "> 100 µM (inactive)"
  },
  {
    "molecule": "Cc1ccc(Nc2nnc3n2S(=O)(=O)c2cc(C)c(Cl)cc2S3)cc1",
    "GI50": "3.64 µM (inactive)"
  }
]
